Could you please report measured self-aminoacylation for the items listed next?
- System: biotinyl-Val-oxazolone
- TEST_SUMMARY: self-aminoacylation, catalytic enhancement (BVO) (fold over background); higher = more active; k-Seq, kA / k0A0; sequences stand for … in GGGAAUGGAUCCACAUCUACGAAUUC…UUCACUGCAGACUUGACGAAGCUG
Variants at the floor of the assay were thinned out.
Numbers only.

Solved entries (count: 3):
INPUT_SEQUENCE: AAGUUUGCAAAGAGUCGCAAG [Fam3.1 aminoacylation ribozyme variant]
SUBJECT_OF_TEST: biotinyl-Val-oxazolone
MEASURED_METRIC: self-aminoacylation
RECORDED_MEASUREMENT: 0.832

INPUT_SEQUENCE: AUUAACCUUGGUCAUCGGGUG [Fam2.2 aminoacylation ribozyme variant]
SUBJECT_OF_TEST: biotinyl-Val-oxazolone
MEASURED_METRIC: self-aminoacylation
RECORDED_MEASUREMENT: 4.16

INPUT_SEQUENCE: AUUCACCUACGUCAUAGGGUG [Fam2.2 aminoacylation ribozyme variant]
SUBJECT_OF_TEST: biotinyl-Val-oxazolone
MEASURED_METRIC: self-aminoacylation
RECORDED_MEASUREMENT: 0.933

Required: self-aminoacylation, one value per sequence below.
1. AAGUUUGCUAAUAGUAGCAAG [Fam3.1 aminoacylation ribozyme variant]
2. AUUAACCUAGGUCAUCGGGCG [Fam2.2 aminoacylation ribozyme variant]
3. AUUACCCUGAUCUUCGAGUGA [Fam2.1 aminoacylation ribozyme variant]
4. AUUACCCCUGUCAUCGAGUGA [Fam2.1 aminoacylation ribozyme variant]

Reply |
0.993
2.63
2.74
3.14

Please state self-aminoacylation for every sequence in the list that follows.
1. AUUCAACUAGGUUAUCGGGUG [Fam2.2 aminoacylation ribozyme variant]
2. CUACACUUCAAGCAAUCGGCC [Fam1B.1 aminoacylation ribozyme variant]

Reply |
1. 2.45
2. 1.75

====

- Test system: biotinyl-Val-oxazolone
- TEST_SUMMARY: self-aminoacylation, catalytic enhancement (BVO) (fold over background); higher = more active; k-Seq, kA / k0A0; sequences stand for … in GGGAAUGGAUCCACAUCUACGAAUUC…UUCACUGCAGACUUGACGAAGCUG
This sample holds only a part of the variants without activity.
I'd appreciate it if you could supply self-aminoacylation values for the items below.
Numbers only.

INPUT_SEQUENCE: CUUCGCCUAGGUCAUCGGGUG [Fam2.2 aminoacylation ribozyme variant]
SUBJECT_OF_TEST: biotinyl-Val-oxazolone
self-aminoacylation: 4.54

Give self-aminoacylation for each of the items listed below.
1. AUUGACCUGGGUCAUCGGGUG [Fam2.2 aminoacylation ribozyme variant]
2. AGUCACCUAGGUCAUCGGCUG [Fam2.2 aminoacylation ribozyme variant]
3. AAUCACCUAGGUCAUCGAGUG [Fam2.2 aminoacylation ribozyme variant]
4. ACUACCCUGGUCAUCGAGUGU [Fam2.1 aminoacylation ribozyme variant]

Reply |
1. 13.5
2. 2.59
3. 2.86
4. 20.3

====

- Tested on: biotinyl-Trp-oxazolone
- TEST_SUMMARY: self-aminoacylation, catalytic enhancement (BWO) (fold over background); higher = more active; k-Seq, kA / k0A0; sequences stand for … in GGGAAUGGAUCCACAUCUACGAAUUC…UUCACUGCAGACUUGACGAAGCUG
Variants at the floor of the assay were thinned out.
Consider the following sequences; for each one, report its self-aminoacylation.
Answers are plain numbers.

INPUT_SEQUENCE: AUUACCUUGGACAUCGAGUGA [Fam2.1 aminoacylation ribozyme variant]
self-aminoacylation: 7.94
//
INPUT_SEQUENCE: AUUCACCUAGGUCAUCAGGCG [Fam2.2 aminoacylation ribozyme variant]
self-aminoacylation: 1.87
//
INPUT_SEQUENCE: AUUACCCUGGUUAUCGCGUGA [Fam2.1 aminoacylation ribozyme variant]
self-aminoacylation: 13.5
//
INPUT_SEQUENCE: CUACACUUCAAGUAAUCGGUC [Fam1B.1 aminoacylation ribozyme variant]
self-aminoacylation: 7.07
//
INPUT_SEQUENCE: CUACACUUCAAGCAAUCGGUG [Fam1B.1 aminoacylation ribozyme variant]
self-aminoacylation: 4.25
//
INPUT_SEQUENCE: AUACUUCAAACAAGCGGUCUG [Fam1A.1 aminoacylation ribozyme variant]
self-aminoacylation: 0.889

# map each sequence to its self-aminoacylation
1. GUACACUUCAAGCAAUCGGUC [Fam1B.1 aminoacylation ribozyme variant]
2. ACGACCCUGGUCAUCGAGUGA [Fam2.1 aminoacylation ribozyme variant]

Reply |
18.4
7.11
